Source listed as PubChem BioAssay.

Assay: reducers of endogenous Her2 protein level, primary screen, SKBR3 breast tumor cells, AlphaScreen, ATP viability (AID 461);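 for viability: percent of carrier control wells set as 100% viability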
Details: 18-24 h, measured here: SKBR3 viability, ATP luminescence, at 10 µM
Returns: string. Value is YES if measured viability is below 90%, and NO if it is greater than or equal to it.

CC(C)CC(c1nnnn1CC1CCCO1)N1CCN(Cc2ccc3c(c2)OCO3)CC1 (stereo not given)	YES
O=C(NC1=NCCS1)NC12CC3CC(CC(C3)C1)C2	NO
CCSc1nc2ccccc2n1CC(N)=O	NO
O=C(Nc1ccccc1)N(CCN1CCOCC1)Cc1ccccc1F	NO

Lab note: confirm whether the reported viability for this compound is below 90%, equality not counting. compound: "CN(C)C(=O)CN(c1ccc(F)c(Cl)c1)S(C)(=O)=O"
NO

Determine if "Cc1ccccc1CS(=O)(=O)Cc1ccc(C(=O)NCCCN2CCOCC2)o1" shows viability strictly lower than 90%.
YES

Determine whether this compound shows viability lower than 90% (ties excluded): "COC(=O)c1cn(C(=O)OC)c2ccccc12"
NO

Hi there! Is viability for "O=S(=O)(NCCc1csc(-c2ccccc2)n1)c1ccc2c(c1)OCCO2" below 90%, do you know?
NO

hey, is viability for "Cc1ccc(Nc2nc(N)nc(CN3CCCCCC3)n2)cc1" lower than 90% or not?
YES

Lab note: confirm whether the reported viability for this compound is below 90%, equality not counting. compound: "CCn1nc(CC(=O)Nc2nnc(CC(=O)N3CCCCC3)s2)c2ccccc2c1=O"
NO

Criterion: viability strictly below 90%. Is it met by "Cc1cc(C(=O)NCCCc2ccccc2)no1" ?
NO

Field: below-cutoff. Rule: recorded viability strictly less than 90%. Subject: "CCCCP(=O)(CCCC)Cc1ccccc1O"
NO

---

Assay: HUVEC growth inhibition – cell-based, human, primary screen (AID 575);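 note: 100% = median of untreated cell wells with 0.1% DMSO on each plate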
Settings: HUVEC proliferation, CellTiter-Glo luminescence, 72 h; at 10 µM; stronger effect = lower value
value_type: viability (%)
Your answer should be a plain number; it is taken to be in %.

COc1ccc(CC(=O)NC2CCN(CC(=O)Nc3ccc4c(c3)OCCO4)CC2)cc1OC	88.2

Let us examine a further case.
Return the recorded viability value; entry: "CCN1CCN(S(=O)(=O)Cc2ccccc2)CC1"
105

---

Molecular target: Receptor tyrosine-protein kinase erbB-2 (Homo sapiens) (UniProt P04626)
Sequence (P04626 whole entry, looked up): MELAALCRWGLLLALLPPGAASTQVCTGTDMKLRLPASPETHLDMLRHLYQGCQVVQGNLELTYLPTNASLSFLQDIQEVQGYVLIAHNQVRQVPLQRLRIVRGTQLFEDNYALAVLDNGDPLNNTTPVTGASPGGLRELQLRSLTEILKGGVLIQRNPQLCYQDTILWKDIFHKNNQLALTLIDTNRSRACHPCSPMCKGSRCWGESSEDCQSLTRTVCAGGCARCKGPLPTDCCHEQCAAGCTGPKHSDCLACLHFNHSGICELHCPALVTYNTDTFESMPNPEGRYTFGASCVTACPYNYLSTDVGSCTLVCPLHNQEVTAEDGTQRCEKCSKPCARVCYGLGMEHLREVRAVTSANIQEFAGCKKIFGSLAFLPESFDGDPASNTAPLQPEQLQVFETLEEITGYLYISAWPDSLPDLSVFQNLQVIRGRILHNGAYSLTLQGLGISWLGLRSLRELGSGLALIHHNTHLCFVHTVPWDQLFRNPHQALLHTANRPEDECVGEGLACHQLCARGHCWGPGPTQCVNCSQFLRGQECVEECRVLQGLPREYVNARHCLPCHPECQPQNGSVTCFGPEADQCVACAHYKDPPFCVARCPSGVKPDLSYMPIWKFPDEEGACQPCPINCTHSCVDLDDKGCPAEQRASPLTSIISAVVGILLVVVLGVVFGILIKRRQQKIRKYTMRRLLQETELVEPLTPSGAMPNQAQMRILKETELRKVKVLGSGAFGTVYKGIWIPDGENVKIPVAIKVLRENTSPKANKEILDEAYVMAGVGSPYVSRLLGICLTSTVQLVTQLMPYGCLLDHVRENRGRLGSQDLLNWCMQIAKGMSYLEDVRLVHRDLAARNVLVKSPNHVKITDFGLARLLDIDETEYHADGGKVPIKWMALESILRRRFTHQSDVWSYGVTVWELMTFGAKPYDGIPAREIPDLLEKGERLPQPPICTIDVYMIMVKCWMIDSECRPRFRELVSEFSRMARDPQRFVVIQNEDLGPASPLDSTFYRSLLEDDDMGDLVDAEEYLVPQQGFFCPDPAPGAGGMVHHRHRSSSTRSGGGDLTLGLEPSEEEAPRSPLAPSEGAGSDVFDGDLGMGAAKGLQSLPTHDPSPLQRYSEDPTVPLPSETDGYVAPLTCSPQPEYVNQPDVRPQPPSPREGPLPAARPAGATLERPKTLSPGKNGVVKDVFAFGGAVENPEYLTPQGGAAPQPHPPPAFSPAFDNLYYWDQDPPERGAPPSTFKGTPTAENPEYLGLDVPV
Experiment: reducers of endogenous Her2 protein level, primary screen, SKBR3 breast tumor cells, AlphaScreen, ATP viability (AID 461);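 for Her2 level: lower value means less Her2 protein in the cells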;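 for viability: percent of carrier control wells set as 100% viability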
Settings: 18-24 h, at 10 µM, stronger effect = lower value
value_type: Her2 level (%)
Give the value, in units of %, as a plain number.

Here is how some compounds turned out for Her2 level.
C=CCN(C(=O)CNC(=O)c1ccco1)C(C(=O)NC1CCCCC1)c1ccccc1F (stereo unspecified)	108
CCOC(=O)c1ccc(CC2S/C(=C(\C#N)C(C)=O)NC2=O)cc1 (stereo unspecified)	89.5
Cc1cccc(CS(=O)(=O)Cc2ccc(C(=O)NCC3CCCO3)o2)c1 (stereo unspecified)	108

Please indicate Her2 level recorded for "CCc1nnc(NC(=O)c2cc3c(s2)CCCCC3)s1"
108

Using known records, supply Her2 level for "c1cnc2c(SCc3ccc(-c4nnco4)cc3)cccc2c1"
101

Respond only with Her2 level recorded for "O=C(O)CN1C(=O)C2(OCCCO2)c2ccccc21"
102

---

Listing of recorded differential viability (reversal) by entry.
Assay: reversal of MRP1-mediated doxorubicin resistance, pilot screen, H69AR cells, doxorubicin co-treatment (AID 601)
Details: H69AR cells + 2 uM doxorubicin, CellTiter-Glo, 72 h; at 10 µM; stronger effect = higher value
Express your answer in %, writing the number without its unit.

Before answering, review these 4 worked examples.
CCCCCc1c(C)nc(Nc2nc(C)c3cc(OC)ccc3n2)[nH]c1=O	22.3
c1ccc2c(c1)CNc1ccccc1C2	-4.85
CCOC(=O)c1[nH]c2ccc(Br)cc2c1NC(=O)CNC	-0.115
COc1ccc(CNc2ccc(C(=O)O)cc2)cc1	4.9

Look up and report measured differential viability (reversal) for this entry: Cc1cccc(COc2ccc(/C(O)=C3\C(=O)C(=O)N(CCN(C)C)C3c3ccncc3)cc2)c1 (stereo unspecified)
-3.29

Report differential viability (reversal) for "COc1ccc(-c2noc(CSc3nc(N)c(-c4ccccc4)c(=O)[nH]3)n2)cc1OC"
-0.7

Recall and state the measured differential viability (reversal) for "CC1=C(c2ccc(Cl)cc2)[N+](=O)C(C)(C)N1[O-]" .
-4.19

---

Test: growth suppression of yeast trafficking mutant, preliminary HTS, modulators of trafficking downstream of Golgi apparatus project, 1536-format plate, OD 615 nm (AID 637)
Conditions: yeast transport mutant growth, absorbance 615 nm, 18 h; stronger effect = higher value
Reported inhibition by item:
A number alone suffices; assume %.

Worked cases, inhibition given:
CCOc1ccc2ccccc2c1C(=O)N1CCN(c2ccccc2)CC1	-10.6
COc1ccc2c(c1)C(C)=CC(C)(C)N2C(=O)CSc1nnc(-c2ccc(C)cc2)o1	-1

Now for a further molecule.
Please list inhibition recorded for the molecule "Cn1c(=O)c2c(nc(N3CCCCC3)n2CCSc2nc3ccccc3o2)n(C)c1=O"
-6.39

---

Assay: reducers of endogenous Her2 protein level, primary screen, SKBR3 breast tumor cells, AlphaScreen, ATP viability (AID 461);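 for viability: percent of carrier control wells set as 100% viability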
Details: 18-24 h, measured here: SKBR3 viability, ATP luminescence, at 10 µM
value_type: viability
Report field: quantity (unit follows the number).

Return viability for the following compound: "CC1CCN(C(=O)C2CCN(S(=O)(=O)c3cnc[nH]3)CC2)CC1"
98%

Consider the compound Cc1ccc(NCc2nnc(SCC(=O)N3CCCCC3)n2CC2CCCO2)c(C)c1 (stereo not given) . State its measured viability.
94.5%

Input "CN(C)C(=O)Cn1c(SCC(=O)NC2CCCCC2)nc2ccccc21" , output reported viability.
72%

Using known records, supply viability for "Cc1nnc(SCC(=O)N2CCC(C(=O)Nc3nccs3)CC2)n1Cc1ccccc1"
91.5%

Given the compound "CN(Cc1ccccc1)C(=O)c1ccc2c(c1)OCO2" , write its reported viability.
101%

Please supply the value of reported viability for the item CCOC(=O)C1=C(C)N=C2SC(C)C(=O)N2C1c1cccc(F)c1 (stereo not given)
102%

Report viability for "Cc1nn(S(=O)(=O)N2CCCCC2)c(C)c1Br"
95%

Respond only with viability recorded for Nc1c(S(=O)(=O)c2cccs2)c2nc3ccccc3nc2n1CC1CCCO1 (stereo not given)
79.5%

---

Molecular target: Receptor tyrosine-protein kinase erbB-2 (Homo sapiens)
Test: reducers of endogenous Her2 protein level, primary screen, SKBR3 breast tumor cells, AlphaScreen, ATP viability (AID 461);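 for Her2 level: lower value means less Her2 protein in the cells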;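 for viability: percent of carrier control wells set as 100% viability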
Details: 18-24 h, at 10 µM, stronger effect = lower value
One threshold, 90%, splits the recorded Her2 level values: lower ones are yes, equal or higher ones are no.

Find out if reported Her2 level for CCOC(=O)N1CCC(N2C(=O)c3ccccc3C2Nc2ccc3c(C)cc(=O)oc3c2)CC1 (stereo not drawn) is less than 90%
no

For "CCn1c(SCC(=O)Nc2nccs2)nnc1-c1ccncc1" , is the recorded Her2 level below the cut-off of 90%?
yes

I'd appreciate it if you could check whether CC1CN(C(=O)c2cc3cc(Cl)cc(Cl)c3oc2=O)CC(C)O1 (stereo not drawn) has Her2 level smaller than 90%.
no

---

Assay: reducers of endogenous Her2 protein level, primary screen, SKBR3 breast tumor cells, AlphaScreen, ATP viability (AID 461);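 for viability: percent of carrier control wells set as 100% viability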
Details: 18-24 h, measured here: SKBR3 viability, ATP luminescence, at 10 µM
The entries below are paired with their reported viability.
Your answer should be a plain number; it is taken to be in %.

CC(=O)Nc1ccc(Oc2cc(C#N)c(C#N)cc2N2CCCCCC2)cc1	108
CN(C)c1nc(N)nc(-c2nc3ccccc3s2)n1	73
CCOC(=O)c1c(-c2ccc(C)o2)csc1NC(=O)COC(=O)c1cccs1	93
CCCC(=O)OCCn1c(Br)nc2c1c(=O)[nH]c(=O)n2C	98.5

For the compound "O=C(Cn1cnc2c(oc3ccccc32)c1=O)N1CCN(c2ccccc2)CC1" , give its reported viability.
95

Indicate its recorded viability; the compound in question is "CC1(C)Cc2c(c(-c3ccccc3)nc(N3CCCC3)c2C(N)=O)CO1"
106

Identify measured viability corresponding to Cc1ccccc1N(CC(=O)NCC1CCCO1)C(=O)C1(C)CC(=O)N=C2C=CC=CN21 (stereo not drawn)
96

// fetch viability given entry "N#Cc1c(N)n(CCNC(=O)c2cccs2)c2nc3ccccc3nc12"
82.5

---

Test: reversal of MRP1-mediated doxorubicin resistance, pilot screen, H69AR cells, doxorubicin co-treatment (AID 601)
Settings: H69AR cells + 2 uM doxorubicin, CellTiter-Glo, 72 h; at 10 µM; stronger effect = higher value
Listed next: entries and their corresponding differential viability (reversal).
Numbers only here, please. The scale is %.

Supply measured differential viability (reversal) of "CCCN(S(=O)(=O)c1ccc(OCC)cc1)S(=O)(=O)c1cccs1" in your reply.
5.81

Supply reported differential viability (reversal) belonging to this compound: "Nn1c(SCc2csc(-c3ccccc3)n2)nnc1-c1cccs1"
6.11

Given "Cn1c(-c2ccccc2)c(CCO)c2ccccc21" , respond with its differential viability (reversal).
-2.71

Dear colleague, please send me the reported differential viability (reversal) for "CCN(CC)c1ccc(CNc2ccc(Br)cn2)cc1" when you can.
-14.7

Annotate the compound "CCC(=O)Nc1c2c(nn1-c1ccccc1C)CSC2" with its measured differential viability (reversal).
12.8

Please look at this compound and report its differential viability (reversal): "CCn1c(SCC(=O)Nc2nnc(C)s2)nnc1-c1ccncc1"
4.15

Provide differential viability (reversal) value for the following compound: "O=C(COC(=O)C1CCN(S(=O)(=O)c2cccs2)CC1)c1cc2ccccc2o1"
2.38

Input "COc1ccc(C2=NO[C@@H]3C(=O)N(c4ccc5c(c4)OCCO5)C(=O)[C@H]23)cc1OC" , output reported differential viability (reversal).
-6.85

Quick one: give measured differential viability (reversal) for "COc1ccc(-c2nnc(SCCC(=O)O)n2-c2ccccc2)cc1"
-2.17

Provide only the value of recorded differential viability (reversal) for COc1ccc(C2CC(=O)C(C=NCCN3CCOCC3)=C(O)C2)cc1 (stereo not drawn)
2.73

Tell me differential viability (reversal) reported for "CCOC(=O)N1CCC(NC(=O)CCN2C(=O)COc3ccccc32)CC1"
6.63

Output differential viability (reversal) of "O=C1C(Cl)=C(N2CCCCC2)C(=O)N1c1ccccc1Cl"
1.39

Give the reported differential viability (reversal) for this compound. "Cc1ccccc1CS(=O)(=O)Cc1ccc(C(=O)NCCCN2CCOCC2)o1"
3.12
